cAMP pEC50 values, listed per item
# system-tested: T1, human GalR1 (human, UniProt P47211 1-349)
# T1 sequence (looked up): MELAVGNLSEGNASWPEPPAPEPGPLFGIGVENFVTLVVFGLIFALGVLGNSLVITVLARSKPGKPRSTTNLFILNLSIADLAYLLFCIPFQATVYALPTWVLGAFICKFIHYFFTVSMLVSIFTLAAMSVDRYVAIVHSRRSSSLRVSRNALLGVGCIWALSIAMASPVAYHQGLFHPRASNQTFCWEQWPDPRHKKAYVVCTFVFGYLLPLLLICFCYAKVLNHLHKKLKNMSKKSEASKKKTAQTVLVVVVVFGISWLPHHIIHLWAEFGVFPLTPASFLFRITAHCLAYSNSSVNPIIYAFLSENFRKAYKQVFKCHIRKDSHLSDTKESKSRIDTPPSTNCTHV
# assay-remarks: cell-based or functional assay
No end group written: not given here.
The reply should be a number in pEC50, with the unit left off.

Recorded cAMP pEC50, per entry:
RGRGNWTLNSAGYLLGPVLPPPALALA [M1145] :: 6.8
WTLNSAGYLLGPHAIDNHRSFHDKYGLA [Galanin 2-29 (rat)] :: 8.6
WTLNSAGYLLGPKKKKK (also: PEG (dPEG24) on one lysine, site not given here) [Nax409-9] :: 6.5

Query binder follows.
Query block: Entry GWTLNSAGYLLGPQPPGFSPFR [M617] has what cAMP pEC50?
Result block: 10
